test system: Staphylococcus aureus; assay: Antibacterial activity against methicillin-resistant Staphylococcus aureus 86 assessed as bacterial growth inhibition in presence of 50 ug/ml calcium ions by CLSI protocol based broth microdilution method; type: functional
parameter: MIC

| structure string | MIC |
| --- | --- |
| CCCCCCCCCC(=O)N[C@@H](Cc1c[nH]c2ccccc12)C(=O)N[C@@H](CC(N)=O)C(=O)N[C@@H](CC(=O)O)C(=O)N[C@@H]1C(=O)NCC(=O)N[C@@H](CCCN)C(=O)N[C@@H](CC(=O)O)C(=O)N[C@H](C)C(=O)N[C@@H](CCC(=O)O)C(=O)NCC(=O)N[C@H](CO)C(=O)N[C@@H]([C@@H](C)CC(=O)O)C(=O)N[C@@H](CC(=O)c2ccccc2N)C(=O)O[C@@H]1C | ≥ 32 µg/mL |

Lab note: CCCCCCCCCC(=O)N[C@@H](Cc1ccncc1)C(=O)N[C@@H](CC(N)=O)C(=O)N[C@@H](CC(=O)O)C(=O)N[C@@H]1C(=O)NCC(=O)N[C@@H](CCCN)C(=O)N[C@@H](CC(=O)O)C(=O)N[C@H](C)C(=O)N[C@@H](CC(=O)O)C(=O)NCC(=O)N[C@H](CO)C(=O)N[C@@H]([C@@H](C)CC(=O)O)C(=O)N[C@@H](CC(=O)c2ccccc2N)C(=O)O[C@@H]1C gave MIC of ≥ 32 µg/mL

Lab note: CCCCCCCCCC(=O)N[C@@H](Cc1c[nH]c2ccccc12)C(=O)N[C@@H](CC(N)=O)C(=O)N[C@@H](CC(=O)O)C(=O)N[C@@H]1C(=O)NCC(=O)N[C@@H](CCCN)C(=O)N[C@@H](CC(=O)O)C(=O)N[C@H](C)C(=O)N[C@@H]([C@H](C)CC(=O)O)C(=O)NCC(=O)N[C@H](CO)C(=O)N[C@@H](CC(=O)O)C(=O)N[C@@H](CC(=O)c2ccccc2N)C(=O)O[C@@H]1C gave MIC of ≥ 32 µg/mL

Lab note: CCCCCCCCCC(=O)N[C@@H](Cc1c[nH]c2ccccc12)C(=O)N[C@@H](CC(N)=O)C(=O)N[C@@H](CC(=O)O)C(=O)N[C@@H]1C(=O)NCC(=O)N[C@@H](CCCN)C(=O)N[C@@H](C)C(=O)N[C@H](C)C(=O)N[C@@H](CC(=O)O)C(=O)NCC(=O)N[C@H](CO)C(=O)N[C@@H]([C@@H](C)CC(=O)O)C(=O)N[C@@H](CC(=O)c2ccccc2N)C(=O)O[C@@H]1C gave MIC of ≥ 64 µg/mL

----------
Attribute: MIC
system: Enterococcus; test: Antibacterial activity against Enterococcus 60 assessed as bacterial growth inhibition in presence of 50 ug/ml calcium ions by CLSI protocol based broth microdilution method; type: functional

Some molecules with recorded MIC:
| structure string | MIC |
| --- | --- |
| CCCCCCCCCC(=O)N[C@@H](Cc1c[nH]c2ccccc12)C(=O)N[C@@H](CC(N)=O)C(=O)N[C@@H](CC(=O)O)C(=O)N[C@@H]1C(=O)NCC(=O)N[C@@H](CCCN)C(=O)N[C@@H](CC(=O)O)C(=O)N[C@H](C)C(=O)N[C@@H](CC(=O)O)C(=O)NCC(=O)N[C@H](CO)C(=O)N[C@@H](C)C(=O)N[C@@H](CC(=O)c2ccccc2N)C(=O)O[C@@H]1C | ≥ 64 µg/mL |
| CCCCCCCCCC(=O)N[C@@H](Cc1c[nH]c2ccccc12)C(=O)N[C@@H](CC(N)=O)C(=O)N[C@@H](CC(=O)O)C(=O)N[C@@H]1C(=O)NCC(=O)N[C@@H]([C@@H](C)O)C(=O)N[C@@H](CC(=O)O)C(=O)N[C@H](C)C(=O)N[C@@H](CC(=O)O)C(=O)NCC(=O)N[C@H](CO)C(=O)N[C@@H]([C@@H](C)CC(=O)O)C(=O)N[C@@H](CC(=O)c2ccccc2N)C(=O)O[C@@H]1C | ≥ 32 µg/mL |
| CCCCCCCCCC(=O)N[C@@H](Cc1c[nH]c2ccccc12)C(=O)N[C@@H](CC(N)=O)C(=O)N[C@@H](CC(=O)O)C(=O)N[C@@H]1C(=O)NCC(=O)N[C@@H](CCC(=O)O)C(=O)N[C@@H](CC(=O)O)C(=O)N[C@H](C)C(=O)N[C@@H](CC(=O)O)C(=O)NCC(=O)N[C@H](CO)C(=O)N[C@@H]([C@@H](C)CC(=O)O)C(=O)N[C@@H](CC(=O)c2ccccc2N)C(=O)O[C@@H]1C | ≥ 32 µg/mL |
| CCCCCCCCCC(=O)N[C@@H](Cc1c[nH]c2ccccc12)C(=O)N[C@@H](CC(N)=O)C(=O)N[C@@H](CC(=O)O)C(=O)N[C@@H]1C(=O)NCC(=O)N[C@@H](CCCN)C(=O)N[C@@H](CC(=O)O)C(=O)N[C@H](C)C(=O)N[C@@H](CC(N)=O)C(=O)NCC(=O)N[C@H](CO)C(=O)N[C@@H]([C@@H](C)CC(=O)O)C(=O)N[C@@H](CC(=O)c2ccccc2N)C(=O)O[C@@H]1C | ≥ 32 µg/mL |

For the next question, use this molecule.
Lab note: CCCCCCCCCC(=O)N[C@@H](Cc1c[nH]c2ccccc12)C(=O)N[C@@H](CC(N)=O)C(=O)N[C@@H](CC(=O)O)C(=O)N[C@@H]1C(=O)NCC(=O)N[C@@H](CCCN)C(=O)N[C@@H](CC(=O)O)C(=O)N[C@H](C)C(=O)N[C@@H](CC(=O)O)C(=O)NCC(=O)N[C@H](CO)C(=O)N[C@@H]([C@@H](C)CC(=O)O)C(=O)N[C@@H](C)C(=O)O[C@@H]1C gave MIC of ≥ 32 µg/mL

These data points were gathered from ChEMBL document CHEMBL4619795.
